Assay text: chemical genetic growth profiling, strain panel (AID 1159580);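 also: tested at 20 µM; growth read once vehicle control cultures reached saturation at 30 °C; 1 = growth at the plate median or of vehicle wells; lower values mean less growth of the strain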
Setup conditions: S. cerevisiae deletion strains, growth OD, locus YMR307W, strain GAS1, stronger effect = lower value
Screen size: about 5,500 compounds; about 2,000 (36%) were called active. Inconclusive results (about 18%) are left out. This is one part of the list.
Measured metric: normalized growth

In [3]: df
Out[3]:
                                   compound  result_value
0           C[C@](N)(Cc1ccc(O)c(O)c1)C(=O)O         0.765
1  CCCn1c(=O)c2[nH]c(-c3ccc(OCC(=O)NCCN)cc3)nc2n(CCC)c1=O          1.01
2       OCC(S)CS (configuration not stated)          1.08
3         C[C@@](Cc1ccc(O)c(O)c1)(NN)C(=O)O         0.997
4  COC(=O)C(C)(N)Cc1ccc(O)cc1 (configuration not stated)         0.974
5  CC(Cc1ccc(O)c(O)c1)(NN)C(=O)O (configuration not stated)          1.05
6  COc1ccc(OC)c(S(=O)(=O)NCc2c(F)cccc2Cl)c1          1.09

* * *

Assay text: chemical genetic growth profiling, strain panel (AID 1159580);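 also: tested at 20 µM; growth read once vehicle control cultures reached saturation at 30 °C; 1 = growth at the plate median or of vehicle wells; lower values mean less growth of the strain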
Setup conditions: S. cerevisiae deletion strains, growth OD, locus YHR205W, strain SCH9, stronger effect = lower value
The campaign covered roughly 5,500 compounds. About 2,000 (36%) were called active. Another 18% or so got no clear call; they are omitted. The list shows a part of the results.
Entries are sorted into classes by normalized growth as follows: 0 (below 0.8), 1 (0.8 to below 0.9), 2 (0.9 or more)

                                   compound  assigned_class
0  CCc1cc2c(cc1-c1csc(C/C(N)=N\O)n1)C(C)(C)CCC2(C)C               0
1    O=C(Nc1cccc(C(F)(F)F)c1)Oc1ccc(F)cc1Cl               2
2  CC12CC[C@@H](O)CC1=CC[C@@H]1C2CCC2(C)C(=O)CC[C@@H]12 (stereo not given in full)               1
3  CCOC(=O)CCc1cc(N=Cc2cc(Br)ccc2O)c(O)c(N=Cc2cc(Br)ccc2O)c1               1
4  C/C(=N/OC(=O)Nc1ccc(Cl)cc1)c1ccc2c(c1)CCO2               0
5  COc1cc(C(=O)Oc2c(Cl)cc(Cl)cc2C=Nc2cccc([N+](=O)[O-])c2)cc(OC)c1OC               0
6          Clc1ccc(-c2noc(CSC3=NCCN3)n2)cc1               2
7  COc1cc(N=Cc2cc(Cl)cc(Cl)c2OC(=O)c2cc(OC)c(OC)c(OC)c2)c(OC)cc1Cl               0
8  COc1cc(C(=O)Oc2c(Cl)cc(Cl)cc2C=Nc2cccc(C(F)(F)F)c2)cc(OC)c1OC               0

* * *

Assay text: chemical genetic growth profiling, strain panel (AID 1159580);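 also: tested at 20 µM; growth read once vehicle control cultures reached saturation at 30 °C; 1 = growth at the plate median or of vehicle wells; lower values mean less growth of the strain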
Setup conditions: S. cerevisiae deletion strains, growth OD, locus YNL222W, strain SSU72, stronger effect = lower value
Out of some 5,500 compounds screened, about 2,000 (36%) were called active. Another 18% or so got no clear call; they are omitted. Some of the results follow.
Listing of recorded normalized growth by entry.
Measured metric: normalized growth

>>> df
                                    compound  result_value
 0             CC(=O)C(Sc1nc2ccccc2s1)C(C)=O         0.907
 1  CC1(C)C/C(=N/Nc2ccc(C(F)(F)F)cc2)c2cc(C(C)(C)C)c(O)c(O)c2O1         0.995
 2       CCOC(=O)NC(=S)NC12CC3CC(CC(C3)C1)C2         0.982
 3  CSc1c(C#N)c(-c2ccc(Cl)cc2)nn1C(=O)c1ccccc1Cl         0.963
 4  Cc1cc(C(=O)O/N=C(/N)c2ccc(C(C)(C)C)cc2)no1         0.969
 5  Cc1onc(-c2ccccc2Cl)c1-c1nc2ccccc2c(=O)o1         0.975
 6  COc1cc(Cl)c(NS(=O)(=O)c2cc(Br)c(Br)s2)c(OC)c1          0.95
 7  CCOC(=O)CCc1cc(N=Cc2cc(Br)ccc2O)c(O)c(N=Cc2cc(Br)ccc2O)c1         0.975
 8  Cc1cc(C(=O)O/N=C(/N)c2ccc([N+](=O)[O-])o2)no1         0.957
 9    O=C(Nc1cccc(C(F)(F)F)c1)Oc1ccc(F)cc1Cl         0.973
10  O=C(NCc1ccco1)c1csc(C2COc3ccccc3O2)n1 (stereo unspecified)         0.917
